Biological target: T1, CRBN, Q96SW2;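 also: pooled lentiviral library of zinc finger degron-EGFP fusions in mCherry-positive Jurkat cells, FACS-sorted after compound exposure, with degron abundance counted by next-generation sequencing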
T1 chain: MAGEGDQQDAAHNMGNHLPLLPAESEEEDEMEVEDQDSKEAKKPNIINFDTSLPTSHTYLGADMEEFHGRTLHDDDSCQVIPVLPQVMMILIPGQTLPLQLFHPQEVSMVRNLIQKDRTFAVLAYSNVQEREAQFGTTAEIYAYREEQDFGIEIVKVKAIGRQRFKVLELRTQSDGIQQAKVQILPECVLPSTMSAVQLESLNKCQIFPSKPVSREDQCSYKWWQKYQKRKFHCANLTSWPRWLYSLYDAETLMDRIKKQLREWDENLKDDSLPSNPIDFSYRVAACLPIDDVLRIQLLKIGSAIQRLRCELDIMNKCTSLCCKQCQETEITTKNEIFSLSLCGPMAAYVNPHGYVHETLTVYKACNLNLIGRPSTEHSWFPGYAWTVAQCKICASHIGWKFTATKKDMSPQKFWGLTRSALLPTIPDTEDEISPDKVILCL
Experiment: log2 fold change of degron read counts, EGFP-low vs EGFP+ sorted cells (limma voom), compound-induced degradation; higher = more compound-induced degradation of the degron-EGFP fusion; degrons are variants of IKZF1/3 zinc finger 2; compound dose not given here
Conditions: Jurkat; 18 h; compound: thalidomide
Over roughly 8,300 sequences, “log2 fold change of degron read counts, EGFP-low vs EGFP+ sorted cells (limma voom), compound-induced degradation” has its median near -1.1; the highest 2% begin near 3.2. Many of the other results were omitted from the sample, so the highest values are more common in it than they were.
# if value of log2 fold change of degron read counts reaches 1, tag Criterion met; if it stays below, tag Criterion not met

sequence_entry | assigned_label
FFCPVCGACFTQKGNLLRHIKL [46F_47F_49P_50V_52G_53A_54C_55F_67L_, Q9UKT9] | Criterion met

Next sequence, please.
Q: Quick check, log2 fold change of degron read counts >= 1? FECEICGASFTQKGNLLRHIKL [46F_47E_49E_50I_52G_53A_54S_55F_67L_, Q9UKT9]
Ans: Criterion met
